- Test system: RNA polymerase II Serine 5 phosphorylation in A549 cells overexpressing CDK7 mutant (C312S)
- PROTOCOL_NOTES: Imaging-based cellular RNA PolII Ser5 phosphorylation assay in A549 cells overexpressing CDK7-mutant (C312S)
- Format: cell-based, human
- CONDITION_INFO: Homo sapiens, A549, A549 cells overexpressing CDK7 mutant (C312S); read-out: CDK7_ A549 mutant hCDK7(pIC50) (converted)
Measured IC50 of individual entries
Only the number, expressed in µM, is required.

Sample records with IC50:
COMPOUND	IC50 [µM]
Cc1cc(C2CN([C@@H]3CCN(C(=O)C#CCN(C)C)C3)C2)cc2c1O[C@H](C)c1c(ncnc1N1CCS(=O)(=O)CC1)N2 (single isomer, unassigned)	8.51
Cc1cc(C2CN([C@H]3CCN(C(=O)C#CCCN(C)C)C3)C2)cc2c1O[C@H](C)c1c(ncnc1N1CCS(=O)(=O)CC1)N2 (single isomer, unassigned)	9.12

**Q:** // query IC50 value for entry Cc1cc(C2CN([C@H]3CCN(C(=O)C#CCN(C)C)C3)C2)cc2c1O[C@H](C)c1c(ncnc1N1CCS(=O)(=O)CC1)N2 (single isomer, unassigned)
**A:** 7.24

---

The compounds below have reported pIC50 for RNA polymerase II Serine 5 phosphorylation (CDK7) in A549 cells.
The meaning of pIC50 here: minus log10 of the concentration in molar units.

COMPOUND	EXPERIMENTAL_ENDPOINT	OBSERVED_RESULT
C=CC(=O)N1CC(N2CCC(c3cc(C)c4c(c3)Nc3ncnc(N5CCCC(C#N)C5)c3CO4)CC2)C1 (stereo not drawn)	pIC50	5.88
CC#CC(=O)N1CC(N2C3CCC2CC(c2cc(C)c4c(c2)Nc2ncnc(N5CCS(=O)(=O)CC5)c2[C@@H](C)O4)C3)C1 (mixture of isomers) [compound 183]	pIC50	6.46
C=CC(=O)N1CC(N2CCC(c3cc(C)c4c(c3)Nc3ncnc(N5CCC(C#N)CC5)c3CO4)CC2)C1	pIC50	5.80

**Q:** Write down the reported pIC50 of C=CC(=O)N1CC[C@@H](N2CC(c3cc4c(c(C)n3)OCc3c(ncnc3N3CCS(=O)(=O)CC3)N4)C2)C1 (single isomer, unassigned) , test system: RNA polymerase II Serine 5 phosphorylation (CDK7) in A549 cells.
**A:** 5.34

**Q:** Write down the reported pIC50 of C=CC(=O)N1CC(N2CCC(c3cc4c(cn3)OCc3c(ncnc3N3CCOCC3)N4)CC2)C1 , test system: RNA polymerase II Serine 5 phosphorylation (CDK7) in A549 cells.
**A:** 6.11

---

- TARGET_OR_TEST_SYSTEM: CDK7/cyclinH/MAT1 trimeric complex (Homo sapiens (Human), UniProt P50613)
- Sequence (P50613 whole entry): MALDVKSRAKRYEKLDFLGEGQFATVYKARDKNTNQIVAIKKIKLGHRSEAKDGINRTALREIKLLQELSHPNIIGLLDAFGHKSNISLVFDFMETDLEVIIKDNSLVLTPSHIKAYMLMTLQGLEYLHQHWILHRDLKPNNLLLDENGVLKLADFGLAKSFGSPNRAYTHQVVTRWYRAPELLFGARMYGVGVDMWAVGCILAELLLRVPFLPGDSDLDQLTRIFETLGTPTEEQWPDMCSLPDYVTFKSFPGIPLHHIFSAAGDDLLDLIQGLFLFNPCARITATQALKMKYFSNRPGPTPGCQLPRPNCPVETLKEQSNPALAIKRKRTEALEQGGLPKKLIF
- Sequence (P51946 whole entry partner): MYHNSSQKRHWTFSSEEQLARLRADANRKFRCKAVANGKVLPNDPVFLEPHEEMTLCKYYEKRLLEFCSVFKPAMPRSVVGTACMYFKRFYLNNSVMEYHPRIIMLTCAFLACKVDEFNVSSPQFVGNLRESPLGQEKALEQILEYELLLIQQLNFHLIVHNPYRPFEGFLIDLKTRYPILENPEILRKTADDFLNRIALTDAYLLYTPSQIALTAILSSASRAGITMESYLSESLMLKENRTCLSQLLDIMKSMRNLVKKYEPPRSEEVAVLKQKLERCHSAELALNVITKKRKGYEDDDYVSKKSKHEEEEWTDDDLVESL
- Sequence (P51948 whole entry partner): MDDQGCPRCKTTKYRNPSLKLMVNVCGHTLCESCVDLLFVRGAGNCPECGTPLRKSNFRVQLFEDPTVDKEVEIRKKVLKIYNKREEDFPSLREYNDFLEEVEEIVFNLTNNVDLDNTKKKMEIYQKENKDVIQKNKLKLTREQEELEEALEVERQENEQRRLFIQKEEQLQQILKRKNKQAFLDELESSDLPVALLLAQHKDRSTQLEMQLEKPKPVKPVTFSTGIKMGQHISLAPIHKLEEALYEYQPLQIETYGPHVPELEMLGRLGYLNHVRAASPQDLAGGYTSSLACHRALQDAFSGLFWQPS
- PROTOCOL_NOTES: In vitro CDK7 assay, potency of irreversible covalent inhibitors (kinact/KI)
- CONDITION_INFO: CDK7 (20 nM enz.) (KI, μM), 20 nM enz.
EXPERIMENTAL_ENDPOINT: Ki
Could you kindly put the unit after your number?

COMPOUND	OBSERVED_RESULT
C=CC(=O)N1CC(N2CC(c3cc(C)c4c(c3)Nc3ncnc(N5CCS(=N)(=O)CC5)c3CO4)C2)C1	0.0322 µM
C=CC(=O)N1CCC(N2CC(c3cc4c(c(C5CC5)c3)O[C@@H](C)c3c(ncnc3N3CCS(=O)(=O)CC3)N4)C2)C1 (mixture of isomers)	0.0068 µM
C=CC(=O)N1CC(N2CCC(c3cc(F)c4c(c3)Nc3ncnc(-c5cnn(C)c5)c3CO4)CC2)C1	0.408 µM

**Q:** // query Ki value for entry C=CC(=O)N1CC(N2CCC(c3cc4c(c(C)n3)O[C@@H](C)c3c(ncnc3N3CCS(=O)(=O)CC3)N4)CC2)C1 (single isomer, unassigned)
**A:** 0.117 µM

**Q:** // query Ki value for entry C=CC(=O)N1CCC(N2CC(c3cc(C)c4c(c3)Nc3ncnc(N5CCOCC5)c3CO4)C2)CC1
**A:** 0.183 µM

**Q:** // query Ki value for entry C=CC(=O)N1CCC(N2CC(c3cc(C)c4c(c3)Nc3ncnc(N5CCOCC5)c3CO4)C2)C(F)C1 (stereo not drawn) [compound 29]
**A:** 0.78 µM

Origin of values: patent US20240109912A1
